System: CEM cells HIV-1 protection, formazan growth assay
Experiment: NCI AIDS Antiviral Assay
Conditions: measured here: growth of uninfected CEM cells
pIC50: −log10 of the molar value.
Rule: pIC50 under 4 gives No, otherwise Yes.

Worked examples, 2 molecules total:
• CC(CC=O)Nc1nn2c(=O)c3ccccc3nc2s1 (configuration not stated) = No
• O=C1OC(c2ccccc2)N/C1=C\c1ccc2c(c1)OCO2 (configuration not stated) = Yes

Query: Decide: is the reported value of pIC50 for C[C@@H]1OC2(O)[C@H]3CCCN3S(=O)(=O)CCN2C1=O (some centres not stated) equal to or greater than 4?
Result: No

Query: Test whether the molecule CSc1cnn(CCC#N)c(=O)n1 records pIC50 of 4 or higher.
Result: Yes

Query: Please tell me: is the molecule COC1CC(COCc2ccccc2)CC(OC)O1 (configuration not stated) at or over 4 in terms of pIC50?
Result: Yes

These entries and their values trace back to PubChem BioAssay AID179.
